# Test system: Plasmodium berghei
# ASSAY DETAILS: Screen against P. berghei liver stage (PbLuc), transformed with Luciferase, at 10uM
# Assay type: functional, HepG2
# TEST CONTEXT: tested at 10 uM
In all, about 69,000 compounds went through this assay and about 8,600 (12%) showed an effect of 50% or more. The entries come from a sample that favours strong results as a whole.
For each of the molecules below, state its INHIBITION.
State the answer as a number, implicitly in %.

Q) # returns recorded INHIBITION (system: Plasmodium berghei) for CCc1n[nH]c(C2CN(C(=O)Cc3cccs3)CCO2)n1 (centres undefined)
A) -33.7

Q) # returns recorded INHIBITION (system: Plasmodium berghei) for Cn1cc(CNC2CCOCC2)c(-c2cc3ccccc3o2)n1
A) 39.6

Q) # returns recorded INHIBITION (system: Plasmodium berghei) for Cn1cnc2c1CCN(CC(=O)NC1CCCCNC1=O)C2 (centres undefined)
A) -7.72

Q) # returns recorded INHIBITION (system: Plasmodium berghei) for CCc1n[nH]c(C2CN(C(=O)CCc3cccs3)CCO2)n1 (centres undefined)
A) 51.3

Q) # returns recorded INHIBITION (system: Plasmodium berghei) for Cn1c(C2CC2)nc2c1CCN(CC(=O)NC1CCCCNC1=O)C2 (centres undefined)
A) 52

Q) # returns recorded INHIBITION (system: Plasmodium berghei) for Oc1ccc2oc3c(c2c1CN1CCOCC1)CCCC3
A) -115

Q) # returns recorded INHIBITION (system: Plasmodium berghei) for CCCc1n[nH]c(C2CN(C(=O)CCn3nc(C)cc3C)CCO2)n1 (centres undefined)
A) 34.6

Q) # returns recorded INHIBITION (system: Plasmodium berghei) for COc1c(C2CCCN2CC(=O)Nc2cc(C)on2)c(C)nn1C (centres undefined)
A) -102

Q) # returns recorded INHIBITION (system: Plasmodium berghei) for Cn1nnc(NCc2ccc(-c3ccc(Br)cc3)o2)n1
A) 0.868

Q) # returns recorded INHIBITION (system: Plasmodium berghei) for Cc1nc(CN2CCc3c(nc(C4CC4)n3C)C2)nc2ccccc12
A) 74.1

Q) # returns recorded INHIBITION (system: Plasmodium berghei) for Cn1cc(CNC2CCS(=O)(=O)C2)c(-c2cc3ccccc3o2)n1 (centres undefined)
A) 35

Q) # returns recorded INHIBITION (system: Plasmodium berghei) for CCN1CCC(NC(=O)CN2CCc3c(nc(C4CC4)n3C)C2)CC1
A) 24.8

Q) # returns recorded INHIBITION (system: Plasmodium berghei) for CC(C(=O)NC(N)=O)N(C)CCCc1cc(-c2ccccc2)no1 (centres undefined)
A) -28.36

Q) # returns recorded INHIBITION (system: Plasmodium berghei) for Cc1nc2ccccc2nc1CN1CCc2c(nc(C3CC3)n2C)C1
A) -12.2

Q) # returns recorded INHIBITION (system: Plasmodium berghei) for Cc1ccc(C(=O)NC2CCN(CC(=O)N(C)c3ccccc3)CC2)o1
A) 7.27

Q) # returns recorded INHIBITION (system: Plasmodium berghei) for Cc1cccc(=O)n1CCC(=O)N1CCC2(CC1)OCCCC2O (centres undefined)
A) 24.2

Q) # returns recorded INHIBITION (system: Plasmodium berghei) for Cc1ccc(N2CCCN(C(=O)CCCn3ccnc3C)CC2)nn1
A) 7.18

Q) # returns recorded INHIBITION (system: Plasmodium berghei) for COCCOCC(=O)Nc1nc2c(OC)cc(F)cc2s1
A) 7.65

Q) # returns recorded INHIBITION (system: Plasmodium berghei) for COc1c[nH]c(C(=O)N2CCN(c3cccc(Cl)c3)CC2)cc1=O
A) 38.8

Q) # returns recorded INHIBITION (system: Plasmodium berghei) for CNC(=O)Cn1ccc2ccc(NC(=O)C(C)CSC)cc21 (centres undefined)
A) 29.6

Q) # returns recorded INHIBITION (system: Plasmodium berghei) for O=C1NCCCc2c1oc1ccc(O)c(CN3CCOCC3)c21
A) 58.1

Q) # returns recorded INHIBITION (system: Plasmodium berghei) for O=C(NCC1CC1)C1CCC2(CCN(C(=O)c3ccncc3)CC2)O1 (centres undefined)
A) -6.05

Q) # returns recorded INHIBITION (system: Plasmodium berghei) for CCc1n[nH]c(C2CN(C(=O)CCCn3cccn3)CCO2)n1 (centres undefined)
A) 56.1

Q) # returns recorded INHIBITION (system: Plasmodium berghei) for Cc1cnc(NCc2cnn(C)c2)nc1-c1cnn(C)c1
A) 61.2

---

For each of the molecules below, state its INHIBITION.
# Tested on: Plasmodium berghei
# ASSAY DETAILS: Screen against P. berghei liver stage (PbLuc), transformed with Luciferase, at 10uM
# Type: functional, HepG2
# TEST CONTEXT: tested at 10 uM
Hit rate of the full screen: of about 69,000 compounds, about 8,600 (12%) showed an effect of 50% or more. The entries come from a sample that favours strong results as a whole.
State the answer as a number, implicitly in %.

Q) # returns recorded INHIBITION (system: Plasmodium berghei) for c1nc(N2CCCC2Cn2cncn2)c2sccc2n1 (centres undefined)
A) 10.65

Q) # returns recorded INHIBITION (system: Plasmodium berghei) for COc1ccc(CC2(C(=O)O)CCN(c3nc(C)ncc3C)CC2)cc1
A) -1.25

Q) # returns recorded INHIBITION (system: Plasmodium berghei) for CSc1ccccc1NC(=O)N1C[C@@H](N(C)C)[C@H](c2ccc(C)cc2)C1
A) -5.38

Q) # returns recorded INHIBITION (system: Plasmodium berghei) for COc1cccc(N2CCN(C(=O)c3noc4c3CCCCC4)CC2)c1
A) 10.1

Q) # returns recorded INHIBITION (system: Plasmodium berghei) for COCCCNC(=O)Cn1c(C)cc(=O)n2nc(-c3cccs3)nc12
A) 49.1

Q) # returns recorded INHIBITION (system: Plasmodium berghei) for c1cnn(CC2CCCCN2c2ncnc3sccc23)c1 (centres undefined)
A) 18.2

Q) # returns recorded INHIBITION (system: Plasmodium berghei) for COc1cccc(N2CCN(C(=O)c3noc4c3CCCC4)CC2)c1
A) 12.6

Q) # returns recorded INHIBITION (system: Plasmodium berghei) for Cc1cc(C)c(C(=O)NCCNc2ncnc3ccccc23)c(=O)[nH]1
A) -21.6

Q) # returns recorded INHIBITION (system: Plasmodium berghei) for CCN(C(=O)Cn1cc(Cl)cn1)c1ccccc1
A) 4.81

Q) # returns recorded INHIBITION (system: Plasmodium berghei) for CC(c1nc(C2CC2)no1)N1CCN(CC(=O)N2CCOCC2)CC1 (centres undefined)
A) 10.7

Q) # returns recorded INHIBITION (system: Plasmodium berghei) for CC(C)Cc1cc(C(=O)NCCN2CCCS2(=O)=O)[nH]n1
A) -36.385

Q) # returns recorded INHIBITION (system: Plasmodium berghei) for COCCN1CCCC2(CCN(c3cc(C)c(C#N)c(C)n3)C2)C1=O (centres undefined)
A) -8.25

Q) # returns recorded INHIBITION (system: Plasmodium berghei) for Cc1cc(=O)n2nc(-c3cccs3)nc2n1CC(=O)NC(C)C
A) 67.3

Q) # returns recorded INHIBITION (system: Plasmodium berghei) for COc1cccc(-c2noc3c2CN(c2ncnc4c2CCC4)CC3)c1
A) 89.6

Q) # returns recorded INHIBITION (system: Plasmodium berghei) for Cc1cc(C(=O)N2CCCN(c3nccs3)CC2)c(C)n1C(C)C
A) -26.3

Q) # returns recorded INHIBITION (system: Plasmodium berghei) for CC(C)S(=O)(=O)CC(=O)N(Cc1ccsc1)c1ccccc1
A) 54.4

Q) # returns recorded INHIBITION (system: Plasmodium berghei) for CC(C)c1ccc(N2CCc3onc(-c4ccc(F)c(F)c4)c3C2)nn1
A) 40.3

Q) # returns recorded INHIBITION (system: Plasmodium berghei) for COCC(C)N1CCc2onc(-c3ccc(F)c(F)c3)c2C1 (centres undefined)
A) 16.7

Q) # returns recorded INHIBITION (system: Plasmodium berghei) for COc1cccc(-c2noc3c2CN(c2nc(C)ncc2C)CC3)c1
A) 80

Q) # returns recorded INHIBITION (system: Plasmodium berghei) for CCn1nc(C)cc1C(=O)OCCNC(=O)c1ccccc1
A) -1.95

Q) # returns recorded INHIBITION (system: Plasmodium berghei) for Cc1nc(CNC(=O)c2cc(COc3ccccc3F)[nH]n2)n[nH]1
A) 17

Q) # returns recorded INHIBITION (system: Plasmodium berghei) for COC(=O)Cn1c(C)cc(=O)n2nc(-c3cccs3)nc12
A) 29.2

Q) # returns recorded INHIBITION (system: Plasmodium berghei) for CNS(=O)(=O)CC(=O)N(Cc1ccsc1)c1ccccc1
A) -2.69

Q) # returns recorded INHIBITION (system: Plasmodium berghei) for c1cnn(CC2CCCN2c2ncnc3sccc23)c1 (centres undefined)
A) 79.7

The reported measurements were obtained from ChEMBL document CHEMBL4513216.
